Values from ChEMBL document CHEMBL1201862

system: SF-268; assay: NCI tumour cell line growth inhibition, 48 h
Active and inactive are the calls of the source. No stated cut-off is given here; in the data, active = GI50 up to about 1.1 µM and inactive = higher.
Listed here: items and their measured GI50.
MEASUREMENT TYPE: GI50

1) NC(=O)C(=O)N/N=C1\C(=O)N(c2ccc(Cl)cc2Cl)C(=O)C1C(=O)Nc1ccc(Cl)cc1Cl (configuration not stated) ... > 100 µM (inactive)
2) COc1ccc(-c2cc(-c3ccc(Nc4ccnc5cc(Cl)ccc45)cc3)nc(N)c2C#N)cc1 ... > 100 µM (inactive)
3) O=C(/N=C(\Nc1ccccc1)SCCS/C(=N/C(=O)c1cccs1)Nc1ccccc1)c1cccs1 ... > 10 µM (inactive)
4) Cc1cc(C)n(C(=CC(=O)C(Cl)Cl)n2nc(C)cc2C)n1 ... 6.38 µM (inactive)
5) C/C1=C\CC/C(C)=C/C=C(/C(C)C)CC/C(C(=O)O)=C/CC1 ... 72.8 µM (inactive)
6) CCCOCN1COCN/C1=N\C#N ... 39.1 µM (inactive)
7) CCOP(=O)(OCC)/C(C#N)=C/c1cnc[nH]1 ... > 100 µM (inactive)
8) NC(=O)C1=C(c2ccccc2)c2ccccc2C1=O ... 17.8 µM (inactive)
9) CC(C)OC(=O)C1Cc2c([nH]c3ccccc23)C(c2ccccc2)N1 (configuration not stated) ... 56.9 µM (inactive)
10) C=C(COCO)C(C)=O ... 20 µM (inactive)
11) O=C1Nc2ccccc2N=CC1NC(=O)C(c1ccccc1)c1ccccc1 (configuration not stated) ... > 100 µM (inactive)
12) COc1ccc2c(c1OC)OCC(CN(C)C)C2=O (configuration not stated) ... 25.4 µM (inactive)
13) CCCCCCCCCCC1OC([C@@H](O)CC[C@H](O)C2CC[C@@H](CCCCCCCC(O)CC3=CC(C)OC3=O)O2)CCC1O (some centres not stated) ... 2.35 µM (inactive)
14) COC(=O)c1ccc(/C=C2\Cc3ccccc3C2=O)cc1 ... > 100 µM (inactive)
15) Cc1ccc(N/C(Sc2ccccc2)=C(/C(Cl)=C(Cl)Cl)[N+](=O)[O-])c(C)c1 ... 14 µM (inactive)
16) C/C(=C/C(=O)Nc1ccccc1)Nc1onc(C)c1C ... > 100 µM (inactive)
17) COc1ccc2nc(NCN3C(=O)c4ccccc4C3=O)sc2c1 ... > 100 µM (inactive)
18) Cc1cc(C)c2c(n1)S(=O)(=O)N(CCCN1CCN(c3cccc(Cl)c3)CC1)C(C(=O)c1ccccc1)=C2O ... 39 µM (inactive)
19) N#CC(c1ccccn1)c1nc2ccccc2[nH]1 (configuration not stated) ... > 100 µM (inactive)
20) C/C(CC(=O)Nc1ccc(Cl)cc1)=N\NC(=O)C[n+]1ccccc1 ... > 100 µM (inactive)
21) CCc1ncc(CO)n1Cc1cccc2ccccc12 ... > 100 µM (inactive)
22) O=C(CCSC(CC(=O)c1ccc(Cl)cc1)c1ccc(Cl)cc1)Nc1ccc(Cl)cc1 (configuration not stated) ... 15.2 µM (inactive)
